- Test system: U2OS
- PROTOCOL SUMMARY: cell viability relative to DMSO; higher = less toxic
- REPORTED CONDITIONS: 72 h; 1 nM
Each record here notes measured cell viability.

MOLECULE	MEASUREMENT UNITS	cell viability
CCn1nc(C(=O)O)c(=O)c2cc3c(cc21)OCO3 [cinoxacin]	%	95.1
FC(F)(F)c1ccc(/C=C/c2nc(COc3ccc(CCCCn4ccnn4)cc3)co2)cc1 [mubritinib]	%	100
NCCS [cysteamine]	%	102
C[C@]12C[C@H](O)[C@H]3[C@@H](CCC4=CC(=O)CC[C@@]43C)[C@@H]1CC[C@@H]2C(=O)CO [corticosterone]	%	94.9
Cc1ccc2c(-c3ccccc3)nc(=O)n(C(C)C)c2c1 [proquazone]	%	99.7
CCC(c1ccccc1)c1c(O)c2ccccc2oc1=O (stereo unspecified) [phenprocoumon]	%	96.8
CC1(C)CCC(C)(C)c2cc(C3(c4ccc5cc(C(=O)O)ccc5c4)SCCS3)ccc21	%	97.9
CC(C)C(=O)Nc1ncc(-c2cc(C(F)F)nn2-c2c(Cl)cccc2Cl)s1 [LIMKi-3]	%	98.1
Cc1nc(N)sc1-c1ccnc(Nc2ccc(N3CCOCC3)cc2)n1 [CYC116]	%	104
O=C(O[C@H]1C[C@H]2CC[C@@H](C1)[N+]21CCCC1)C(O)(c1ccccc1)c1ccccc1 [trospium]	%	95.7
Nc1ccn([C@@H]2O[C@@](CO)(CCl)[C@@H](O)[C@H]2F)c(=O)n1 [ALS-8112]	%	102
CS(=O)(=O)c1ccc([C@@H](O)[C@@H](CO)NC(=O)C(Cl)Cl)cc1 [thiamphenicol]	%	99.5
O=C[C@H](O)[C@@H](O)[C@H](O)CO [xylose]	%	95.1
CCN1CCN(c2cc(-c3ccc(F)cc3)c3c(n2)CCCCCC3)CC1 [blonanserin]	%	100
O=C(c1ccc2nccnc2c1)N1CCCCC1 [ampalex]	%	98.3
CCOC(=O)CCC(=O)O[C@H]1[C@H](O[C@@H]2[C@@H](C)[C@H](O[C@H]3C[C@@](C)(OC)[C@@H](O)[C@H](C)O3)[C@@H](C)C(=O)O[C@H](CC)[C@@](C)(O)[C@H](O)[C@@H](C)C(=O)[C@H](C)C[C@@]2(C)O)O[C@H](C)C[C@@H]1N(C)C [erythromycin-ethylsuccinate]	%	102
CC(=O)Nc1ncc([N+](=O)[O-])s1 [nithiamide]	%	99.2
COc1ccc2[nH]c(-c3ccccc3)c(CCNC(C)=O)c2c1 [2-phenylmelatonin]	%	102
COc1cc(/C=C/C(=O)CC(=O)/C=C/c2ccc(O)c(OC)c2)ccc1O [curcumin]	%	99.8
O=C1c2cccc3c2[C@H](CCC3)CN1[C@@H]1CN2CCC1CC2 [palonosetron]	%	98.9
CN(C)NC(=O)CCC(=O)O [daminozide]	%	97.8
C=C[C@](C)(O)CC[C@@H]1[C@@]2(C)CCCC(C)(C)[C@@H]2CC[C@@]1(C)O [sclareol]	%	107
CC[n+]1c(-c2ccccc2)c2cc(N)ccc2c2ccc(N)cc21 [homidium]	%	97.1
Cc1cn([C@@H]2C[C@@H](O)[C@H](CO)O2)c(=O)[nH]c1=O [telbivudine]	%	97.8
COCCOCCOc1ccc(C2=N[C@@](C)(C(=O)O)CS2)c(O)c1 [SP-420]	%	103
N[C@@H](Cc1ccc(Cl)cc1)C(=O)O (racemic) [fenclonine-(+/-)]	%	93.6
Cc1ccc(-c2ncc(Cl)cc2-c2ccc(S(C)(=O)=O)cc2)cn1 [etoricoxib]	%	98.1
CCCn1c(=O)c(C)cn2nc(N)nc12	%	100
CCCN(CCC)C(=O)C(CCC(=O)OCCCN1CCN(CCOC(=O)Cc2c(C)n(C(=O)c3ccc(Cl)cc3)c3ccc(OC)cc23)CC1)NC(=O)c1ccccc1 (stereo unspecified) [proglumetacin]	%	95.9
c1ccc(-c2nn3c(c2-c2ccnc4cc(OCCN5CCOCC5)ccc24)CCC3)nc1	%	95.4
CC1(C)CCC[C@]2(C)[C@H]3CC(=O)O[C@]3(C)CC[C@@H]12 [Sclareolide (Norambreinolide)]	%	100

* * *

- System: Caco-2
- PROTOCOL SUMMARY: cell viability relative to DMSO; higher = less toxic
- REPORTED CONDITIONS: 72 h; 10 nM
Each record here notes measured cell viability.

CPD SMILES	cell viability
CN(C)Cc1cccc(N/C(=C2\C(=O)Nc3cc(C(N)=O)ccc32)c2ccccc2)c1	99.7%
O=C(O)c1ccccc1Nc1cccc(C(F)(F)F)c1	96.3%
COc1cc(C[C@H]2C(=O)OC[C@@H]2Cc2ccc(OC)c(OC)c2)ccc1O	98.9%
COC(=O)C1=CO[C@@H](O)[C@@H]2C(CO)=CC[C@H]12	96.1%

* * *

- Test system: Caco-2
- PROTOCOL SUMMARY: drug sensitivity score (DSS) for viability; higher = more toxic; extreme values may be limits of the assay
- REPORTED CONDITIONS: 72 h
Each record here notes measured drug sensitivity score.

COMPOUND	TESTED SYSTEM	drug sensitivity score
CCCCOC(=O)c1cc2c(cn1)[nH]c1ccccc12 [beta-CCB]	Caco-2	0.1
Cc1ccc2c(-c3ccccc3)nc(=O)n(C(C)C)c2c1 [proquazone]	Caco-2	0
COc1ccc(/C=C/C(=O)O)cc1 [trans-4-methoxycinnamic-acid]	Caco-2	0
FCc1ccc(OCCOc2ccc(Cl)cc2Cl)c(Cl)n1	Caco-2	1.9
COc1ccc(-n2c(SCc3nc(-c4ccc(C)cc4)no3)nnc2-c2ccncc2)cc1 [JW-74]	Caco-2	0.1

* * *

Each record here notes measured cell viability.
- Test system: Vero E6
- PROTOCOL SUMMARY: cell viability relative to DMSO; higher = less toxic
- REPORTED CONDITIONS: 72 h; 10 nM

COMPOUND	cell viability / %
C[C@H](CCC(=O)NCCS(=O)(=O)O)[C@H]1CC[C@H]2[C@@H]3[C@H](O)C[C@@H]4C[C@H](O)CC[C@]4(C)[C@H]3C[C@H](O)[C@]12C [taurocholate]	106
FC(F)(F)c1ccc(/C=C/c2nc(COc3ccc(CCCCn4ccnn4)cc3)co2)cc1 [mubritinib]	103
CCOC(=O)Nc1ccc2c(c1)N(C(=O)CCN1CCOCC1)c1ccccc1S2 [moracizine]	101
CC1(C)Oc2ccc(C#N)cc2[C@H](N(Cc2ncc[nH]2)c2ccc(Cl)cc2)[C@H]1O	93
CN1CCCN(C(c2ccccc2)c2ccc(Cl)cc2)CC1 (stereo unspecified) [homochlorcyclizine]	99.5
CCCOC(C(=O)OC1CCN(C)CC1)(c1ccccc1)c1ccccc1 [propiverine]	95

* * *

- Tested on: Vero E6
- PROTOCOL SUMMARY: cell viability relative to DMSO; higher = less toxic
- REPORTED CONDITIONS: 72 h; 1000 nM
ENDPOINT: cell viability (%)

CPD SMILES	RECORDED VALUE
Cc1cn([C@@H]2C[C@@H](O)[C@H](CO)O2)c(=O)[nH]c1=O	85
CCCCCOc1ccc(-c2ccc(-c3ccc(C(=O)N[C@H]4C[C@@H](O)[C@@H](O)NC(=O)[C@@H]5[C@@H](O)[C@@H](C)CN5C(=O)[C@H]([C@@H](C)O)NC(=O)[C@H]([C@H](O)[C@@H](O)c5ccc(O)cc5)NC(=O)[C@@H]5C[C@@H](O)CN5C(=O)[C@H]([C@@H](C)O)NC4=O)cc3)cc2)cc1	101
O=C(O[C@H]1C[C@H]2CC[C@@H](C1)[N+]21CCCC1)C(O)(c1ccccc1)c1ccccc1	95.3
CCN(CC)CCOc1ccc(/C(=C(\Cl)c2ccccc2)c2ccccc2)cc1	101
Cc1ccc(-c2csc3ncnc(SCCC(=O)O)c23)cc1	101
CC(C)C(=O)Nc1ncc(-c2cc(C(F)F)nn2-c2c(Cl)cccc2Cl)s1	92.2
O=[N+]([O-])c1ccc2nc(COCc3nc4ccc([N+](=O)[O-])cc4[nH]3)[nH]c2c1	94.6
CCOC(=O)[C@H](CCc1ccccc1)N[C@@H](C)C(=O)N1Cc2ccccc2C[C@H]1C(=O)O	90.4
CCN(CC)CCOC(=O)C(c1ccccc1)c1ccccc1	107
CC(C)NCCN(C(C)C)S(=O)(=O)c1ccc(Cl)cc1Cl	96.7

* * *

Each record here notes measured cell viability.
- System: Caco-2
- PROTOCOL SUMMARY: cell viability relative to DMSO; higher = less toxic
- REPORTED CONDITIONS: 72 h; 10000 nM

COMPOUND	cell viability [%]
COCCOCCOc1ccc(C2=N[C@@](C)(C(=O)O)CS2)c(O)c1 [SP-420]	54
O=C1NC(=O)C(c2ccccc2)(c2ccccc2)N1 [phenytoin]	99.3
CN1CCN(c2cc(-c3ccccc3)nc(N)n2)CC1	93

* * *

- Test system: U2OS
- PROTOCOL SUMMARY: cell viability relative to DMSO; higher = less toxic
- REPORTED CONDITIONS: 72 h; 100 nM
ENDPOINT: cell viability (%)

CPD SMILES	ENDPOINT	MEASUREMENT UNITS	RECORDED VALUE
COc1cc(C[C@H]2C(=O)OC[C@@H]2Cc2ccc(OC)c(OC)c2)ccc1O	cell viability	%	98.3
COc1cc2nccc(Oc3ccc(NC(=O)NC4CC4)c(Cl)c3)c2cc1C(N)=O	cell viability	%	101
CCOC(=O)CCNc1cc(N2CCc3ccccc3CC2)nc(-c2ccccn2)n1	cell viability	%	99.3
CCCCc1nc(Cl)c(CO)n1Cc1ccc(-c2ccccc2-c2nnn[nH]2)cc1	cell viability	%	96.4
